Recorded MIC values for a group of compounds are listed next.
Tested on: Streptococcus pyogenes
Assay: microbe, parasite or virus in culture

The cases that follow already have their MIC on record.
{"columns": ["COMPOUND", "MIC"],
 "data": [
  ["Cc1cnc(NC(=O)NC23CC4CC(CC(C4)C2)C3)s1", "> 200 µg/mL"],
  ["O=C(Nc1ccon1)NC12CC3CC(CC(C3)C1)C2", "> 200 µg/mL"],
  ["Cc1cc(CNC(=O)NC23CC4CC(CC(C4)C2)C3)no1", "> 200 µg/mL"]
]}

INPUT: So what MIC did Cn1cc(NC(=O)NC23CC4CC(CC(C4)C2)C3)cn1 get with Streptococcus pyogenes?
OUTPUT: > 200 µg/mL

---

Test system: Plasma
Conditions: human, 4 h, 10 µM
QUANTITY: PPB
Reply with the number and its unit after it.

INPUT: Look at this compound and give its reported PPB. CC(C)c1nnc(NC(=O)NC2C3CC4CC(C3)CC2C4)o1 (centres undefined)
OUTPUT: 98%

INPUT: Look at this compound and give its reported PPB. CC(C)c1nnc(NC(=O)NC23CC4CC(CC(C4)C2)C3)o1
OUTPUT: 99.3%

INPUT: Look at this compound and give its reported PPB. CC(C)(C)c1cc(NC(=O)NC2C3CC4CC(C3)CC2C4)no1 (centres undefined)
OUTPUT: 95.2%

INPUT: Look at this compound and give its reported PPB. CCCn1nc(NC(=O)NC2C3CC4CC(C3)CC2C4)cc1C (centres undefined)
OUTPUT: 98.9%

---

Biological target: Bifunctional epoxide hydrolase 2 (Homo sapiens, UniProt P34913)
Sequence (P34913 whole entry): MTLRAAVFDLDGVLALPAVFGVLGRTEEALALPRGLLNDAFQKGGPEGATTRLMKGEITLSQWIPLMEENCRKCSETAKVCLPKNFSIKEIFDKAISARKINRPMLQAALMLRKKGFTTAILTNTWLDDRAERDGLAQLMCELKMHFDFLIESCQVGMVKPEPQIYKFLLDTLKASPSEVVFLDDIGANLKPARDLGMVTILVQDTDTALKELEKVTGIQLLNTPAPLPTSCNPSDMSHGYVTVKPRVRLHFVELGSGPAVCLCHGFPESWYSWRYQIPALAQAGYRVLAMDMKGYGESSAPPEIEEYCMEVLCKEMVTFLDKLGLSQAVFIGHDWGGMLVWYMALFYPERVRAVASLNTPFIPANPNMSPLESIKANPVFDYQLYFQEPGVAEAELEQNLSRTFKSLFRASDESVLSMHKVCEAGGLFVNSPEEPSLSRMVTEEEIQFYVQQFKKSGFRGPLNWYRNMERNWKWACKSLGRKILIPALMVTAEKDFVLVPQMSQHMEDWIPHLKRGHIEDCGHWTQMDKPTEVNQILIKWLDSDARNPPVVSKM
Recorded log10(IC50) values for a group of molecules are listed next.
Please note: log10 values; quantity IC50; unit nM.

The cases that follow already have their log10(IC50) on record.
{"columns": ["MOLECULE", "ASSAYED_SYSTEM", "NUMERIC_READOUT"],
 "data": [
  ["Cc1cc(NC(=O)NC23CC4CC(CC(C4)C2)C3)no1", "Bifunctional epoxide hydrolase 2 (Homo sapiens, UniProt P34913)", 2.13],
  ["CCn1ccc(NC(=O)NC23CC4CC(CC(C4)C2)C3)n1", "Bifunctional epoxide hydrolase 2 (Homo sapiens, UniProt P34913)", 2.95],
  ["O=C(Nc1nccs1)NC12CC3CC(CC(C3)C1)C2", "Bifunctional epoxide hydrolase 2 (Homo sapiens, UniProt P34913)", 1.92],
  ["O=C(Nc1nnc(C2CC2)o1)NC1C2CC3CC(C2)CC1C3 (stereo unspecified)", "Bifunctional epoxide hydrolase 2 (Homo sapiens, UniProt P34913)", 3.38]
]}

INPUT: Look at this molecule and give its reported log10(IC50). CCCn1nc(NC(=O)NC2C3CC4CC(C3)CC2C4)cc1C (stereo unspecified)
OUTPUT: 2.97

INPUT: Look at this molecule and give its reported log10(IC50). O=C(Nc1ncco1)NC12CC3CC(CC(C3)C1)C2
OUTPUT: 2.98

---

Recorded MIC values for a group of molecules are listed next.
Test system: Klebsiella pneumoniae
Assay: microbe, parasite or virus in culture

{"columns": ["MOLECULE", "ASSAYED_SYSTEM", "MIC"],
 "data": [
  ["CC(C)(C)c1cc(NC(=O)NC23CC4CC(CC(C4)C2)C3)no1", "Klebsiella pneumoniae", "> 200 µg/mL"],
  ["O=C(Nc1nccnn1)NC12CC3CC(CC(C3)C1)C2", "Klebsiella pneumoniae", "> 200 µg/mL"],
  ["O=C(Nc1cccnc1)NC12CC3CC(CC(C3)C1)C2", "Klebsiella pneumoniae", "> 200 µg/mL"],
  ["O=C(Nc1nc2ccccc2s1)NC12CC3CC(CC(C3)C1)C2", "Klebsiella pneumoniae", "> 200 µg/mL"],
  ["Cc1cc(NC(=O)NC23CC4CC(CC(C4)C2)C3)no1", "Klebsiella pneumoniae", "> 200 µg/mL"]
]}

Consider now this further molecule.
INPUT: Look at this molecule and give its reported MIC. CC(C)(C)c1cc(NC(=O)NC2C3CC4CC(C3)CC2C4)no1 (stereo unspecified)
OUTPUT: > 200 µg/mL

---

System: Bacillus anthracis
Assay: microbe, parasite or virus in culture
Conditions: Sterne
QUANTITY: MIC

{"columns": ["COMPOUND", "ASSAYED_SYSTEM", "RESULT"],
 "data": [
  ["Cc1cc(NC(=O)NC23CC4CC(CC(C4)C2)C3)on1", "Bacillus anthracis", "> 200 µg/mL"],
  ["O=C(Nc1nnc(C2CC2)o1)NC12CC3CC(CC(C3)C1)C2", "Bacillus anthracis", "50 µg/mL"],
  ["Cc1cc(NS(=O)(=O)c2ccc(NC(=O)NC34CC5CC(CC(C5)C3)C4)cc2)no1", "Bacillus anthracis", "> 200 µg/mL"]
]}

INPUT: Look at this compound and give its reported MIC. O=C(Nc1ncco1)NC12CC3CC(CC(C3)C1)C2
OUTPUT: > 200 µg/mL

INPUT: Look at this compound and give its reported MIC. CCn1nc(NC(=O)NC2C3CC4CC(C3)CC2C4)cc1C (configuration not stated)
OUTPUT: > 200 µg/mL

INPUT: Look at this compound and give its reported MIC. O=C(Nc1nnc(C2CC2)o1)NC1C2CC3CC(C2)CC1C3 (configuration not stated)
OUTPUT: > 200 µg/mL

INPUT: Look at this compound and give its reported MIC. O=C(Nc1nc2ccccc2s1)NC12CC3CC(CC(C3)C1)C2
OUTPUT: 200 µg/mL

INPUT: Look at this compound and give its reported MIC. O=C(Nc1ncco1)NC1C2CC3CC(C2)CC1C3 (configuration not stated)
OUTPUT: > 200 µg/mL

INPUT: Look at this compound and give its reported MIC. O=C(Nc1ccncc1)NC12CC3CC(CC(C3)C1)C2
OUTPUT: > 200 µg/mL

INPUT: Look at this compound and give its reported MIC. COc1ccc(NS(=O)(=O)c2ccc(NC(=O)NC34CC5CC(CC(C5)C3)C4)cc2)nn1
OUTPUT: 50 µg/mL

INPUT: Look at this compound and give its reported MIC. Cc1cc(CNC(=O)NC23CC4CC(CC(C4)C2)C3)no1
OUTPUT: > 200 µg/mL

INPUT: Look at this compound and give its reported MIC. Cc1nc(NS(=O)(=O)c2ccc(NC(=O)NC34CC5CC(CC(C5)C3)C4)cc2)oc1C
OUTPUT: > 200 µg/mL

---

Recorded MIC values for a group of compounds are listed next.
System: Streptococcus pyogenes
Test: microbe, parasite or virus in culture

{"columns": ["COMPOUND", "MIC"],
 "data": [
  ["O=C(Nc1ncccn1)NC12CC3CC(CC(C3)C1)C2", "> 200 mg/L"]
]}

INPUT: Look at this compound and give its reported MIC. Cc1cc(NS(=O)(=O)c2ccc(NC(=O)NC34CC5CC(CC(C5)C3)C4)cc2)no1
OUTPUT: > 200 mg/L

INPUT: Look at this compound and give its reported MIC. O=C(Nc1ncncn1)NC12CC3CC(CC(C3)C1)C2
OUTPUT: > 200 mg/L

INPUT: Look at this compound and give its reported MIC. O=C(Nc1ccccn1)NC12CC3CC(CC(C3)C1)C2
OUTPUT: > 200 mg/L

INPUT: Look at this compound and give its reported MIC. O=C(Nc1ccncn1)NC12CC3CC(CC(C3)C1)C2
OUTPUT: > 200 mg/L

INPUT: Look at this compound and give its reported MIC. Cc1noc(NC(=O)NC23CC4CC(CC(C4)C2)C3)c1C#N
OUTPUT: > 200 mg/L

INPUT: Look at this compound and give its reported MIC. O=C(Nc1nccnn1)NC12CC3CC(CC(C3)C1)C2
OUTPUT: > 200 mg/L

INPUT: Look at this compound and give its reported MIC. CCn1nc(NC(=O)NC2C3CC4CC(C3)CC2C4)cc1C (stereo not given)
OUTPUT: > 200 mg/L

INPUT: Look at this compound and give its reported MIC. O=C(Nc1ccncc1)NC12CC3CC(CC(C3)C1)C2
OUTPUT: > 200 mg/L

INPUT: Look at this compound and give its reported MIC. O=C(Nc1ncco1)NC12CC3CC(CC(C3)C1)C2
OUTPUT: > 200 mg/L

INPUT: Look at this compound and give its reported MIC. Cc1noc(NC(=O)NC23CC4CC(CC(C4)C2)C3)c1Cl
OUTPUT: > 200 mg/L

INPUT: Look at this compound and give its reported MIC. COc1ccc(NS(=O)(=O)c2ccc(NC(=O)NC34CC5CC(CC(C5)C3)C4)cc2)nn1
OUTPUT: > 200 mg/L

INPUT: Look at this compound and give its reported MIC. CCCn1nc(NC(=O)NC2C3CC4CC(C3)CC2C4)cc1C (stereo not given)
OUTPUT: > 200 mg/L

INPUT: Look at this compound and give its reported MIC. Cc1cc(NC(=O)NC2C3CC4CC(C3)CC2C4)no1 (stereo not given)
OUTPUT: > 200 mg/L

INPUT: Look at this compound and give its reported MIC. CC(C)c1nnc(NC(=O)NC2C3CC4CC(C3)CC2C4)o1 (stereo not given)
OUTPUT: 200 mg/L
